- Target Desc: Leukotriene A-4 hydrolase (Homo sapiens, UniProt P09960)
- Sequence (P09960 whole entry): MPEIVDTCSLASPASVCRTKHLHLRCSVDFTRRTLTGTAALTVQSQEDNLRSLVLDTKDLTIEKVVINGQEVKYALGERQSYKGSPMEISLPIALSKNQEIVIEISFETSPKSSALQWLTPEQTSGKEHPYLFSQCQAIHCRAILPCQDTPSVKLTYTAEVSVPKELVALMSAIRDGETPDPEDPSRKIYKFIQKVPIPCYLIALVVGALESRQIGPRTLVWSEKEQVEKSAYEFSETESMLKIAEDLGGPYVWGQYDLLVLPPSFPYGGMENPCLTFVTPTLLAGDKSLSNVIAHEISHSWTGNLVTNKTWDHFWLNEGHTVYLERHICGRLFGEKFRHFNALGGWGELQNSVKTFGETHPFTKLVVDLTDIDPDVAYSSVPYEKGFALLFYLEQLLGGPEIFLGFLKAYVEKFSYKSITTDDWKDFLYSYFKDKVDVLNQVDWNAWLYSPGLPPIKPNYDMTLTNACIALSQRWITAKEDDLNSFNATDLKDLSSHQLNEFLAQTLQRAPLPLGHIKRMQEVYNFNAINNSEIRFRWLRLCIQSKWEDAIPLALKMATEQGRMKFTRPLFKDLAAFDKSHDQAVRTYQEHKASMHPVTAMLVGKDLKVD
- Protocol Text: Competitive inhibition of human recombinant LTA4H using alanine-p-nitroanilide as substrate by Dixon-plot analysis
pKi: −log10 of the molar value.
Readout Kind: pKi

1) N[C@H]1CCc2ccccc2[C@H](CCc2ccccc2)C1=O (racemic)
3.33
2) N[C@H]1CCc2ccccc2/C(=C/c2ccccc2)C1=O
3.42

###

- Target Desc: Cytosol aminopeptidase (Bos taurus, UniProt P00727)
- Sequence (P00727 whole entry): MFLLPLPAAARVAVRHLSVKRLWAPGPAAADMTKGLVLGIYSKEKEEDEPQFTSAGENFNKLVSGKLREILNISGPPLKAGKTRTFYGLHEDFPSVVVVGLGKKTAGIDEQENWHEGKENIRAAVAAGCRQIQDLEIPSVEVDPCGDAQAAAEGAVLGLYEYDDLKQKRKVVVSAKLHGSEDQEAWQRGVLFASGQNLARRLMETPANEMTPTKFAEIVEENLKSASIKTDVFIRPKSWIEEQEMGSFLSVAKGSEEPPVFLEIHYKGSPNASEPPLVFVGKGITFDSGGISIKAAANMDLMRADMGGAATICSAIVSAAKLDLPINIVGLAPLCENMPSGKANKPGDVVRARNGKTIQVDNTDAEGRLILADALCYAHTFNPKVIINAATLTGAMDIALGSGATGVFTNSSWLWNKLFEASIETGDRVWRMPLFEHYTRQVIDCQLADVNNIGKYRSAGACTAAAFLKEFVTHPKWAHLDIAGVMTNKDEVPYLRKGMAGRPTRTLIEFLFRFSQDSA
- Protocol Text: Competitive inhibition of bovine LAPc using L-leucine-p-nitroanilide as substrate by Dixon-plot analysis
Readout Kind: pKi
The value called pKi is obtained by taking minus log10 of the concentration in mol/L.

Which value of pKi has been reported for N[C@H]1CCc2ccccc2[C@H](SCc2ccccc2)C1=O (racemic) in the records?
4.40
